SYSTEM TESTED: MLKL (Homo sapiens)
EXPERIMENTAL PROTOCOL: MLKL degradation assay in HepG2 cell line (western blot)
Type: cell-based
Set-up: endogenous in cells; host or cells: HepG2 or HaCaT
EXPERIMENTAL CONDITIONS: compound 1 μM; cell line not given
REPORTED ENDPOINT: Degradation assay (Degradation %) 1 μM
Include the unit after the number when you answer.

[[record]]
compound = "Nc1ncc(-c2cnn(C3CCN(CC4CCN(C(=O)CCc5cccc6c5C(=O)N(C5CCC(=O)NC5=O)C6=O)CC4)CC3)c2)nc1C(=O)O[C@@H](C(=O)Nc1ccc(F)cc1)c1ccccc1 (stereo partly drawn) [TDH-336]"
reported_result = "73.04%"


Noted for Nc1ncc(-c2cnn(C3CCN(CCC4CCN(C(=O)CNc5ccc6c(c5)C(=O)N(C5CCC(=O)NC5=O)C6=O)CC4)CC3)c2)cc1C(=O)OC(C(=O)Nc1ccc(F)cc1)c1ccccc1 (stereo not drawn) [TDH-302] : its Degradation assay (Degradation %) 1 μM reads 96.64%

Noted for Nc1ncc(-c2cnn(C3CCN(CC4CN(C(=O)CNc5ccc6c(c5)C(=O)N(C5CCC(=O)NC5=O)C6=O)CCO4)CC3)c2)nc1C(=O)OC(C(=O)Nc1ccc(F)cc1)c1ccccc1 (stereo not drawn) [TDH-307] : its Degradation assay (Degradation %) 1 μM reads 57.38%

Noted for Nc1ncc(-c2cnn(C3CCN(CCOCCNc4ccc5c(c4)C(=O)N(C4CCC(=O)NC4=O)C5=O)CC3)c2)nc1C(=O)O[C@@H](C(=O)Nc1ccc(F)cc1)c1ccccc1 (stereo partly drawn) [TDH-131] : its Degradation assay (Degradation %) 1 μM reads 51.13%

Noted for Nc1ncc(-c2cnn(C3CCN(CCCN4CCN(C(=O)CC5CCN(c6ccc7c(c6)C(=O)N(C6CCC(=O)NC6=O)C7=O)CC5)CC4)CC3)c2)nc1C(=O)O[C@@H](C(=O)Nc1ccc(F)cc1)c1ccccc1 (stereo partly drawn) [TDH-369] : its Degradation assay (Degradation %) 1 μM reads 73.33%

Noted for Nc1ncc(-c2cnn(C3CCN(C(=O)C4CCN(C(=O)CNc5cccc6c5C(=O)N(C5CCC(=O)NC5=O)C6=O)CC4)CC3)c2)nc1C(=O)OC(C(=O)Nc1ccc(F)cc1)c1ccccc1 (stereo not drawn) [TDH-275] : its Degradation assay (Degradation %) 1 μM reads 57.84%

====

SYSTEM TESTED: MLKL (Homo sapiens, UniProt Q8NB16)
Sequence (Q8NB16 whole entry): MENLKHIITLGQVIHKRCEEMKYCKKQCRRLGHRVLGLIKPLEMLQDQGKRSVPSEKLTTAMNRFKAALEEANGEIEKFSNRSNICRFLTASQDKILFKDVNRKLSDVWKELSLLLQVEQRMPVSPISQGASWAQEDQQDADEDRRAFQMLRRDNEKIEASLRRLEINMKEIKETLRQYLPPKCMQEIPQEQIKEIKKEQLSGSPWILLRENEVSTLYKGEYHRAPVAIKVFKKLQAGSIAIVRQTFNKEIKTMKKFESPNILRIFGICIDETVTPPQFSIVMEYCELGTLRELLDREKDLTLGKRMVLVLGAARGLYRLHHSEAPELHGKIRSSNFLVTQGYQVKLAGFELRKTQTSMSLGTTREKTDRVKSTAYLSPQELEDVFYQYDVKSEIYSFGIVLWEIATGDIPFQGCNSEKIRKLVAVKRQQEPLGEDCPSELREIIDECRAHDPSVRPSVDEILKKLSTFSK
EXPERIMENTAL PROTOCOL: MLKL degradation assay in HepG2 cell line (western blot)
Assay type: cell-based
Parameters: endogenous in cells; host or cells: HepG2 or HaCaT
EXPERIMENTAL CONDITIONS: compound 1 μM; cell line not given
REPORTED ENDPOINT: Degradation assay (Degradation %) 1 μM
Enter your answer as a number in %; do not include the unit.

Reference set (4 entries):
[[record]]
compound = "Nc1ncc(-c2cnn(C3CCN(CCOC4CCN(C(=O)CNc5cccc6c5C(=O)N(C5CCC(=O)NC5=O)C6=O)CC4)CC3)c2)nc1C(=O)OC(C(=O)Nc1ccc(F)cc1)c1ccccc1 (centres unmarked)"
reported_endpoint = "Degradation assay (Degradation %) 1 μM"
reported_result = 35.81

[[record]]
compound = "Nc1ncc(-c2cnn(C3CCN(C(=O)CC4CCN(C(=O)C5CN(c6ccc7c(c6)C(=O)N(C6CCC(=O)NC6=O)C7=O)C5)CC4)CC3)c2)nc1C(=O)O[C@@H](C(=O)Nc1ccc(F)cc1)c1ccccc1 (some centres unmarked)"
reported_endpoint = "Degradation assay (Degradation %) 1 μM"
reported_result = 74.27

[[record]]
compound = "Nc1ncc(-c2cnn(C3CCN(CCOCCOCCOCCNC(=O)CNc4cccc5c4C(=O)N(C4CCC(=O)NC4=O)C5=O)CC3)c2)nc1C(=O)O[C@@H](C(=O)Nc1ccc(F)cc1)c1ccccc1 (some centres unmarked)"
reported_endpoint = "Degradation assay (Degradation %) 1 μM"
reported_result = 64

[[record]]
compound = "Nc1ncc(-c2cnn(C3CCN(CC4CCN(c5ccc6c(c5)C(=O)N(C5CCC(=O)NC5=O)C6=O)CC4)CC3)c2)nc1C(=O)O[C@@H](C(=O)Nc1ccc(F)cc1)c1ccccc1 (some centres unmarked)"
reported_endpoint = "Degradation assay (Degradation %) 1 μM"
reported_result = 66.97


Noted for `Nc1ncc(-c2cnn(C3CCN(CCCN4CCN(C(=O)c5ccc6c(N7CCC(=O)NC7=O)coc6c5)CC4)CC3)c2)nc1C(=O)O[C@@H](C(=O)Nc1ccc(F)cc1)c1ccccc1` : its Degradation assay (Degradation %) 1 μM reads 88.03

====

Tested on: FADD−/− Jurkat cells
EXPERIMENTAL PROTOCOL: Necroptosis inhibition assay, TNF-α-induced necroptosis (CellTiter-Glo 2.0)
Type: cell-based, human
EXPERIMENTAL CONDITIONS: compound 1 μM; TNF-α 15 ng/mL
REPORTED ENDPOINT: Necroptosis inhibition assay (Rescue %) 1 μM
Enter your answer as a number in %; do not include the unit.

Reference set (3 entries):
[[record]]
molecule = "Nc1ncc(-c2cnn(C3CCN(CC4CCN(C(=O)CNc5ccc6c(c5)C(=O)N(C5CCC(=O)NC5=O)C6=O)CC4)CC3)c2)nc1C(=O)N[C@@H](C(=O)Nc1ccc(F)cc1)c1ccccc1 (stereo partly shown) [TDH-207]"
output_unit = "%"
reported_result = 28.69

[[record]]
molecule = "Nc1ncc(-c2cnn(C3CCN(CC4CCN(C(=O)CC5CCN(c6ccc7c(c6)C(=O)N(C6CCC(=O)NC6=O)C7=O)CC5)CC4)CC3)c2)nc1C(=O)O[C@@H](C(=O)Nc1ccc(F)cc1)c1ccccc1 (stereo partly shown) [TDH-205]"
output_unit = "%"
reported_result = 59.88

[[record]]
molecule = "Nc1ncc(-c2cnn(C3CCN(CCOCCOCCNc4cccc5c4C(=O)N(C4CCC(=O)NC4=O)C5=O)CC3)c2)nc1C(=O)O[C@@H](C(=O)Nc1ccc(F)cc1)c1ccccc1 (stereo partly shown) [TDH-121]"
output_unit = "%"
reported_result = 2.96


Noted for Nc1ncc(-c2cnn(C3CCN(CCCN4CCN(C(=O)C5CCN(c6cccc7c6C(=O)N(C6CCC(=O)NC6=O)C7=O)CC5)CC4)CC3)c2)nc1C(=O)OC(C(=O)Nc1ccc(F)cc1)c1ccccc1 (stereo not shown) [TDH-239] : its Necroptosis inhibition assay (Rescue %) 1 μM reads 40.3

Noted for Nc1ncc(-c2cnn(C3CCN(CCOCCOCCNC(=O)CNc4cccc5c4C(=O)N(C4CCC(=O)NC4=O)C5=O)CC3)c2)nc1C(=O)N[C@@H](C(=O)Nc1ccc(F)cc1)c1ccccc1 (stereo partly shown) [TDH-217] : its Necroptosis inhibition assay (Rescue %) 1 μM reads 24.76

Noted for Nc1ncc(-c2cnn(C3CCN(C[C@H]4CC[C@H](CNC(=O)C5CCN(c6ccc7c(c6)C(=O)N(C6CCC(=O)NC6=O)C7=O)CC5)CC4)CC3)c2)nc1C(=O)O[C@@H](C(=O)Nc1ccc(F)cc1)c1ccccc1 (stereo partly shown) [TDH-350] : its Necroptosis inhibition assay (Rescue %) 1 μM reads 39.64

Noted for Nc1ncc(-c2cnn(C3CCN(CCOCCOCCOCCNC(=O)C4CN(c5cccc6c5C(=O)N(C5CCC(=O)NC5=O)C6=O)C4)CC3)c2)nc1C(=O)O[C@@H](C(=O)Nc1ccc(F)cc1)c1ccccc1 (stereo partly shown) [TDH-141] : its Necroptosis inhibition assay (Rescue %) 1 μM reads 2.72

Noted for Nc1ncc(-c2cnn(C3CCN(CC4CCN(c5ccc6c(c5)C(=O)N(C5CCC(=O)NC5=O)C6=O)CC4)CC3)c2)nc1C(=O)O[C@@H](C(=O)Nc1ccc(F)cc1)c1ccccc1 (stereo partly shown) [TDH-150] : its Necroptosis inhibition assay (Rescue %) 1 μM reads 53.91

Noted for Nc1ncc(-c2cnn(C3CCN(C(=O)C4CCN(C(=O)C5CCN(c6cccc7c6C(=O)N(C6CCC(=O)NC6=O)C7=O)CC5)CC4)CC3)c2)nc1C(=O)OC(C(=O)Nc1ccc(F)cc1)c1ccccc1 (stereo not shown) [TDH-273] : its Necroptosis inhibition assay (Rescue %) 1 μM reads 54.02

Noted for Nc1ncc(-c2cnn(C3CCN(CC4CCN(CC(=O)N5CC(Nc6cccc7c6C(=O)N(C6CCC(=O)NC6=O)C7=O)C5)CC4)CC3)c2)nc1C(=O)OC(C(=O)Nc1ccc(F)cc1)c1ccccc1 (stereo not shown) [TDH-271] : its Necroptosis inhibition assay (Rescue %) 1 μM reads 45.32

====

System: FADD−/− Jurkat cells
EXPERIMENTAL PROTOCOL: Necroptosis inhibition assay, TNF-α-induced necroptosis (CellTiter-Glo 2.0)
Type: cell-based, human
EXPERIMENTAL CONDITIONS: compound 1 μM; TNF-α 15 ng/mL
Label T for high-side Necroptosis inhibition assay (Rescue %) 1 μM (at or above 40%) and F for low-side Necroptosis inhibition assay (Rescue %) 1 μM (below it).

[[record]]
molecule = "Nc1ncc(-c2cnn(C3CCN(CC4CCN(C(=O)COc5ccc6c(c5)C(=O)N(C5CCC(=O)NC5=O)C6=O)CC4)CC3)c2)nc1C(=O)N[C@@H](C(=O)Nc1ccc(F)cc1)c1ccccc1 (stereo partly drawn)"
group = "F"

[[record]]
molecule = "Nc1ncc(-c2cnn(C3CCN(CC4CCN(C(=O)COc5cccc6c5C(=O)N(C5CCC(=O)NC5=O)C6=O)CC4)CC3)c2)nc1C(=O)N[C@@H](C(=O)Nc1ccc(F)cc1)c1ccccc1 (stereo partly drawn)"
group = "F"

[[record]]
molecule = "Nc1ncc(-c2cnn(C3CCN(CCOCCNC(=O)CNc4ccc5c(c4)C(=O)N(C4CCC(=O)NC4=O)C5=O)CC3)c2)nc1C(=O)O[C@@H](C(=O)Nc1ccc(F)cc1)c1ccccc1 (stereo partly drawn)"
group = "F"

[[record]]
molecule = "Nc1ncc(-c2cnn(C3CCN(CCCCCCNC(=O)CNc4cccc5c4C(=O)N(C4CCC(=O)NC4=O)C5=O)CC3)c2)nc1C(=O)O[C@@H](C(=O)Nc1ccc(F)cc1)c1ccccc1 (stereo partly drawn)"
group = "T"

[[record]]
molecule = "Nc1ncc(-c2cnn(C3CCN(CCOCCOCCNC(=O)C4CCN(c5cccc6c5C(=O)N(C5CCC(=O)NC5=O)C6=O)CC4)CC3)c2)nc1C(=O)O[C@@H](C(=O)Nc1ccc(F)cc1)c1ccccc1 (stereo partly drawn)"
group = "T"


q: Given the entry Nc1ncc(-c2cnn(C3CCN(CC4CCN(C(=O)CCc5ccc6c(c5)C(=O)N(C5CCC(=O)NC5=O)C6=O)CC4)CC3)c2)nc1C(=O)O[C@@H](C(=O)Nc1ccc(F)cc1)c1ccccc1 (stereo partly drawn) , answer whether its Necroptosis inhibition assay (Rescue %) 1 μM meets or surpasses 40%.
a: T

q: Given the entry Nc1ncc(-c2cnn(C3CCN(C(=O)c4cn(C5CCN(C(=O)CNc6cccc7c6C(=O)N(C6CCC(=O)NC6=O)C7=O)CC5)cn4)CC3)c2)nc1C(=O)O[C@@H](C(=O)Nc1ccc(F)cc1)c1ccccc1 (stereo partly drawn) , answer whether its Necroptosis inhibition assay (Rescue %) 1 μM meets or surpasses 40%.
a: F

q: Given the entry Nc1ncc(-c2cnn([C@H]3CCN(CC4CCN(C(=O)CNc5ccc6c(c5)C(=O)N(C5CCC(=O)NC5=O)C6=O)CC4)C3)c2)nc1C(=O)OC(C(=O)Nc1ccc(F)cc1)c1ccccc1 (stereo partly drawn) , answer whether its Necroptosis inhibition assay (Rescue %) 1 μM meets or surpasses 40%.
a: T
